These measurements were taken from patent US11739070B2.

Parameter: IC50. Scope: all listed entries.
- TGT: UniProtKB P21730
- Sequence (P21730 whole entry): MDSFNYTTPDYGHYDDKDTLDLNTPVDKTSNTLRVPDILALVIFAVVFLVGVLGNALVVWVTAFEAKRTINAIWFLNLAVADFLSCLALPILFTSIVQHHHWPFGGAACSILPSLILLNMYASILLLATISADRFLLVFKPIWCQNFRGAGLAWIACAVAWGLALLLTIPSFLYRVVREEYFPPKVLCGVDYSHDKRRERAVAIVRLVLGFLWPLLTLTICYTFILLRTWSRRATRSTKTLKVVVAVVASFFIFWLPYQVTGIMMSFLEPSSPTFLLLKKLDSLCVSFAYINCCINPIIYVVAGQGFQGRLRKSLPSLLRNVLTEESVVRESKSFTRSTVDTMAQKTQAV
- TEST_SUMMARY: hC5a DISCO IC50 assay (PathHunter beta-arrestin, antagonist mode)
- MEASUREMENT_PARAMETERS: CHO-K1 C5AR1 beta-arrestin cell line; antagonist vs 1-10 nM C5a agonist; geometric mean values; read-out: C5aR IC50
Write the answer as a number in nM, unit excluded.

// worked examples, IC50 included
Measured IC50 of COc1cccc2c1n(Cc1ccccc1C(F)(F)F)c(=O)n2[C@H]1CN(C(=O)OC(C)(C)C)C[C@@H]1C (relative stereo) [Example 196] : 139

Measured IC50 of COc1cccc2c1n(Cc1ccccc1C(F)(F)F)c(=O)n2[C@@H]1CCN(c2c(Cl)c(C)nn2C)C1 [Example 80] : 157

Measured IC50 of COc1cccc2c1n(Cc1ccccc1C(F)(F)F)c(=O)n2[C@@H]1CCN(c2c(F)cccc2CN2CCCCC2)C1 [Example 133] : 70

From here, focus on the item given below.
Measured IC50 of COc1cccc2c1n(Cc1ccccc1C(F)(F)F)c(=O)n2[C@@H]1CCN(c2c(F)cccc2CN(C)CCO)C1 [Example 107] : 1320
